assaySystem: Corticotropin-releasing factor receptor 2/Corticotropin-releasing factor-binding protein (Homo sapiens, UniProt P24387+Q13324)
Sequence (Q13324 whole entry): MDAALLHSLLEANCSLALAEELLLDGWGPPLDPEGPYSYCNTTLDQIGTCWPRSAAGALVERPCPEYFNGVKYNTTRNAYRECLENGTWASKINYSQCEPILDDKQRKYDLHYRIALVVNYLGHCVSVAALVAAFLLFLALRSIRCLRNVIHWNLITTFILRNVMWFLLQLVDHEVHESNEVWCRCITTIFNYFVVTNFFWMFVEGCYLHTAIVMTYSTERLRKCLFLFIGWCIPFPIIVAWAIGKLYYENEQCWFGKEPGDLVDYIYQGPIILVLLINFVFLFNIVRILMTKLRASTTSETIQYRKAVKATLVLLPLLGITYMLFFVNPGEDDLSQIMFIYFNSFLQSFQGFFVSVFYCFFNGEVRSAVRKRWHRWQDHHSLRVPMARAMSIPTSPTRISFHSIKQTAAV
Sequence (P24387 whole entry): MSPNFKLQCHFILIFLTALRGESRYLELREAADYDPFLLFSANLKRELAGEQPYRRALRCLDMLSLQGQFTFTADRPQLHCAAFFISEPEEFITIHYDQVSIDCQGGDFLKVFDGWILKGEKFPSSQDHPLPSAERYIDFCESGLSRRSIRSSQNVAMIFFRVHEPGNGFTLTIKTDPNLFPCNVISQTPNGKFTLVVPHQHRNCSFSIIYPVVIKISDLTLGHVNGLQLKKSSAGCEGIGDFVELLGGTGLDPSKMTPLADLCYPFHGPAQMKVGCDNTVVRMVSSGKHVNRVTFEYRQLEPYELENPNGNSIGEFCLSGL
method: Dose Response confirmation of uHTS hits for small molecule antagonists of the CRF-binding protein and CRF-R2 receptor complex.
Type: functional
assayContext: read-out: IC50_Mean
Calls of active or inactive are those of the source.
// one of YES for active, NO for inactive, no free text

Example entries begin here.
{"columns": ["compound", "group"],
 "data": [
  ["COc1ccc(OC)c(NC(=O)c2ccccc2NS(=O)(=O)c2cccc3cccnc23)c1", "YES"],
  ["CC(C)N1CC(C(=O)Nc2ccc(Br)c(Cl)c2)CC1=O (stereo not given)", "NO"],
  ["Oc1nc(SCc2nnc(S)n2-c2ccccc2)nc2sc3c(c12)CCC3", "YES"]
]}

Hi team, can someone confirm the assay call for CCC1CCCCN1CCCNC(=O)c1cn(C)c2ccc(S(=O)(=O)N(C)C3CCCCC3)cc2c1=O (stereo not given) ? NO

Note, next up: `CSc1nnc(-c2sc(-c3ccccc3)nc2C)n1C` YES

Lookup `COc1ccc(-c2nn(-c3ccccc3)cc2/C=C(\C#N)S(=O)(=O)c2ccccc2)cc1OC` NO

Please do the same for CCC(C)(C)n1nnnc1C(c1cccc(C#N)c1)N1CCN(c2cccc(C)c2C)CC1 (stereo not given) as well. NO

And for `Cc1ccsc1/C=N\NC(=O)CCc1c(C)n[nH]c1C` ? NO

Cool, now `O=C(c1cc2nc(-c3ccccc3)cc(-c3ccccc3)n2n1)N1CCN(C(=O)c2ccco2)CC1` NO

Also `O=C(Nc1ccc(C(=O)N2CCCC2)cc1)c1ccccc1F` ? NO

###

assaySystem: Long-chain-fatty-acid--AMP ligase FadD28 (Mycobacterium tuberculosis, UniProt P9WQ59)
Sequence (P9WQ59 whole entry): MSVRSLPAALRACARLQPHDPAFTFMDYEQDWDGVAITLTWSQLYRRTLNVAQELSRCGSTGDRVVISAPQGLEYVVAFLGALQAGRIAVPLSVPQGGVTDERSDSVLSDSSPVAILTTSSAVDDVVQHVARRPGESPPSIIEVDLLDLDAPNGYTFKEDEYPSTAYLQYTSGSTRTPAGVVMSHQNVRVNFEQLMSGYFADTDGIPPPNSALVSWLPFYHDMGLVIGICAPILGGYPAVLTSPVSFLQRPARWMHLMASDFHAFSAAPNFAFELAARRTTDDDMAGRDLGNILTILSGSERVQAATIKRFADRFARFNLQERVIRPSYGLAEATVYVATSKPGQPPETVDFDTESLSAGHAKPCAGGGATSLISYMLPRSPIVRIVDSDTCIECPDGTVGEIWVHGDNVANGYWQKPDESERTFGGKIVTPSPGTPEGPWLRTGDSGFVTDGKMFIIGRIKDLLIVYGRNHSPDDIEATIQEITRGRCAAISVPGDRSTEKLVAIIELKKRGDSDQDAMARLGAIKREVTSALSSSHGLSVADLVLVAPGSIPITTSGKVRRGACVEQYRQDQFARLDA
method: Fluorescence polarization aasay to screen for inhibitors that compete for the binding of FadD28 to a bisubstrate Measured in Biochemical System Using Plate Reader - 2147-01_Inhibitor_Dose_CherryPick_Activity.
Format: functional, Mycobacterium tuberculosis H37Rv
Calls of active or inactive are those of the source.
Use one of these outcomes when replying: class 1 (active), class 0 (inactive)

Answered cases to consult:
{"columns": ["smilesRecord", "assaySystem", "group"],
 "data": [
  ["CC(C)(C)c1csc(NC(=O)Cn2c(=O)oc3ccccc32)n1", "Long-chain-fatty-acid--AMP ligase FadD28 (Mycobacterium tuberculosis, UniProt P9WQ59)", "class 0"],
  ["O=C(O)c1cc(Br)ccc1NN=C1CCCCC1", "Long-chain-fatty-acid--AMP ligase FadD28 (Mycobacterium tuberculosis, UniProt P9WQ59)", "class 0"],
  ["C/N=c1\\scc(-c2cccs2)n1/N=C/c1ccc(O)c(O)c1O", "Long-chain-fatty-acid--AMP ligase FadD28 (Mycobacterium tuberculosis, UniProt P9WQ59)", "class 0"]
]}

Please share the test call associated with `O=C1c2ccccc2C(=O)c2c(O)c(O)cc(O)c21` . class 1

###

assaySystem: Cytochrome P450 2D6 (Homo sapiens, UniProt P10635);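 also: CYP2D6 member of a cytochrome P450 panel assay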
Sequence (P10635 whole entry): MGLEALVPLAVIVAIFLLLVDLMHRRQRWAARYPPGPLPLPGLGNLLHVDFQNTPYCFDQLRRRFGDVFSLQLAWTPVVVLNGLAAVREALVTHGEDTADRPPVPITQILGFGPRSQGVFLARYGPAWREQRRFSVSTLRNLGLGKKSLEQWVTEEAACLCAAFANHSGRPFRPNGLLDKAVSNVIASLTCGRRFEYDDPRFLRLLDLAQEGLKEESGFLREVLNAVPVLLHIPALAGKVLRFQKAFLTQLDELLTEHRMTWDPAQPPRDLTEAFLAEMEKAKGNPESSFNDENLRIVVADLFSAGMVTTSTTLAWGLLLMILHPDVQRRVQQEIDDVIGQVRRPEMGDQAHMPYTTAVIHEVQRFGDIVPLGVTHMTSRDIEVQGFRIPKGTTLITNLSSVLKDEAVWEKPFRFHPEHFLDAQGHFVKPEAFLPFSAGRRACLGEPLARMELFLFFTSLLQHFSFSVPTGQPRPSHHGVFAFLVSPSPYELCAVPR
metric: AC50

Some compounds with known AC50 results, for comparison:
{"columns": ["compound", "metric", "recordedMeasurement"],
 "data": [
  ["O=S(=O)(O)c1ccc(/N=N\\c2ccccc2)cc1", "AC50", "inconclusive"],
  ["CC(=O)COC(=O)CCc1nc2ccccc2nc1O", "AC50", "inconclusive"],
  ["COc1ccc(C(=O)C2=C(O)C(=O)N(CCCC(=O)O)C2c2ccc(OC)cc2)cc1 (stereo not given)", "AC50", "inconclusive"],
  ["COC(=O)CNC(=O)CN1C(=O)N(c2ccccc2)C(N(O)C(=O)Nc2ccccc2)C1(C)C (stereo not given)", "AC50", "inconclusive"]
]}

Please examine the following record next.
I'd like to know its AC50. The compound in question is `Cc1cc2ccccc2nc1SCC(=O)Nc1nc(-c2ccccc2)cs1` inconclusive

###

assaySystem: Streptokinase A (Streptococcus pyogenes serotype M1, UniProt P10520)
Sequence (P10520 whole entry): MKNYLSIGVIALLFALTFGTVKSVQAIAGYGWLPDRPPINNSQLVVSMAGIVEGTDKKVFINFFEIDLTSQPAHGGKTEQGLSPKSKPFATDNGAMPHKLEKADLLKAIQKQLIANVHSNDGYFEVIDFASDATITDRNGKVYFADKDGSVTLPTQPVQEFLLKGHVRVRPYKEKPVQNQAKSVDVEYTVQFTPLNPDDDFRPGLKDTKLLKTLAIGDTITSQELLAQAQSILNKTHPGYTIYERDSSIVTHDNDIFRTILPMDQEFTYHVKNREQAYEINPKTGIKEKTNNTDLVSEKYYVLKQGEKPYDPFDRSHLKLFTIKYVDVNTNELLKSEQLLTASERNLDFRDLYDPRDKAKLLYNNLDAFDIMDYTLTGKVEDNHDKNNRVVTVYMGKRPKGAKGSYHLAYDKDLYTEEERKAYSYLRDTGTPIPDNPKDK
method: S. pyogenes streptokinase expression inhibitors, potency, dose response, plasminogen activation absorbance, OD405 (AID 1914);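 also: secreted streptokinase activity via plasminogen activation per viability signal from cell pellet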
Format: functional, Streptococcus pyogenes M1 GAS
Activity calls are given as the source filed them.
# EC50 per record follows

{"columns": ["compound", "EC50"],
 "data": [
  ["COc1ccc(C2/C(=C(\\O)c3ccccc3)C(C)=Nc3nc4ccccc4n32)c(OC)c1 (configuration not stated)", "> 150 µM (not active)"],
  ["O=C1NC(=S)/C(=C\\c2ccc(-c3ccccc3Cl)o2)S1", "14.7 µM (active)"],
  ["C[N+](C)(C)c1ccc(/C=N/Nc2nc(Cl)c(C#N)c(Cl)c2Cl)cc1", "> 150 µM (not active)"],
  ["COc1ccc(-c2cc(C3CCN(c4ncccc4[N+](=O)[O-])CC3)[nH]n2)cc1", "> 150 µM (not active)"],
  ["C=CCSc1nc(-c2ccccc2)c2cc(Cl)ccc2n1", "29.4 µM (active)"],
  ["COc1ccc(C(=O)CSc2nnc(CNC(=O)c3ccc(S(=O)(=O)N(C)C)cc3)o2)cc1", "> 150 µM (not active)"],
  ["CCN(CC(=O)Nc1ccccc1C(F)(F)F)C(=O)c1cc(-c2ccccc2)nn1-c1ccccc1", "23.9 µM (active)"],
  ["CCOC(=O)c1cccc(NC(=S)N2CCN(c3ncc4c(=O)c(C(=O)O)cn(CC)c4n3)CC2)c1", "> 150 µM (not active)"]
]}

Reported EC50 for CCn1c(SCC(=O)N2CC(C)OC(C)C2)nc2c3ccccc3nc-2c1O (configuration not stated) : what is it? > 150 µM (not active)

What do we get for `O=C(Nc1ncc(Cc2cccc(Cl)c2)s1)c1cccs1` ? > 150 µM (not active)

Also check `CCCc1sc(N/N=C/c2ccccn2)nc1-c1ccc(F)cc1` > 150 µM (not active)

Param item: `O=C(CSc1nnc(CNC(=O)c2ccc(F)cc2)o1)NCc1ccccc1` > 150 µM (not active)

Then what about the compound `O=C(O)CCCNc1cc(N2CCN(C(=O)c3ccco3)CC2)c2noc3c2c1C(=O)c1ccccc1-3` ? > 150 µM (not active)

What about NS(=O)(=O)c1ccc(N2N=C(c3ccccc3)CC2c2ccc(F)cc2)cc1 (configuration not stated) ? 55.2 µM (active)

Again, but for `O=[N+]([O-])c1ccc(S(=O)(=O)Nc2ccc(-c3csc(-c4ccccc4)n3)cc2)cc1` > 150 µM (not active)

Follow-up item: `CCN(c1ccc(OC)cc1)S(=O)(=O)c1nnc(NC(=O)c2ccccc2Cl)s1` 5.58 µM (active)

// same read-out, input: Cc1c(CCOC(=O)C2C3CC4CC(C3)CC2C4)sc[n+]1CC(=O)c1ccc(Br)cc1 (configuration not stated) 21.9 µM (active)
